tested on: CCRIS mutagenicity, Ames/micronucleus/aberration tests; assay: CCRIS mutagenicity studies; conditions: Test System: AMES SALMONELLA TYPHIMURIUM; Strain/Indicator: TA1537; Metabolic Activation: RAT, LIVER, S-9, PHENOBARBITAL AND 5,6-BENZOFLAVONE; Method: PREINCUBATION
Calls of active or inactive are those of the source. No rule for the calls is given here.
Write down the outcome that applies. Available outcomes: 1 (yes) (active), 0 (no) (inactive)

GET /call?item= O=C1C=CC(=O)c2c(O)c(Cl)c(Cl)c(O)c21 returns the recorded outcome of this test. 1 (yes)

Further, for COC(=O)C1=C(C)NC(C)=C(C(=O)OCCc2ccc(N3CCN(C(c4ccccc4)c4ccccc4)CC3)cc2)C1c1cccc([N+](=O)[O-])c1 (stereo unspecified) ? 0 (no)

Further, for CC(=O)N[C@@H]1[C@@H](O[C@@H]2O[C@H](C(=O)O)[C@@H](O[C@@H]3O[C@H](CO)[C@@H](O)[C@H](O[C@@H]4O[C@H](C(=O)O)[C@@H](O)[C@H](O)[C@H]4O)[C@H]3NC(C)=O)[C@H](O)[C@H]2O)[C@H](O)[C@@H](CO)O[C@H]1O ? 0 (no)

Further, for O=C1C=CC(=O)c2ccccc21 ? 0 (no)

Further, for O=C1C=C(Nc2ccccc2)C(=O)c2ccccc21 ? 1 (yes)

Further, for O=c1ccc(=O)c2c(=O)c(Cl)c(Cl)c(=O)c1=2 ? 0 (no)

----------
System: CCRIS mutagenicity, Ames/micronucleus/aberration tests
Experiment: CCRIS mutagenicity studies
Details: Test System: AMES SALMONELLA TYPHIMURIUM; Strain/Indicator: TA97; Metabolic Activation: HAMSTER, LIVER, S-9, AROCLOR 1254; Method: PREINCUBATION
Text: The CCRIS database contains chemical records with carcinogenicity, mutagenicity, tumor promotion, and tumor inhibition test results. It was developed by the National Cancer Institute (NCI). Data are derived from studies cited in primary journals, current awareness tools, NCI reports, and other sources. Test results have been reviewed by experts in carcinogenesis and mutagenesis. CCRIS provides historical information from the years 1985 - 2011. It is no longer updated. […]
The source made the active and inactive calls. No rule for the calls is given here.
Write down the outcome that applies. Available outcomes: active, inactive

Illustrative cases are given below, each with its answer.
GET /call?item= CNc1ccc(N(CCO)CCO)cc1[N+](=O)[O-] returns the recorded outcome of this test. active

Further, for O=P(O)(O)O ? inactive

Further, for CCc1ccccc1 ? inactive

Others:
GET /call?item= OCC1CO1 (stereo unspecified) returns the recorded outcome of this test. active

Further, for O=C1CCC(=O)O1 ? inactive

Further, for c1ccc(Nc2ccc3ccccc3c2)cc1 ? inactive

----------
tested on: CCRIS mutagenicity, Ames/micronucleus/aberration tests; experiment: CCRIS mutagenicity studies; conditions: Test System: AMES SALMONELLA TYPHIMURIUM; Strain/Indicator: TA1535; Metabolic Activation: S-9; Method: STANDARD PLATE
Activity calls are given as the source filed them. No rule for the calls is given here.
Write down the outcome that applies. Available outcomes: 1 (yes) for active, 0 (no) for inactive

Illustrative cases are given below, each with its answer.
GET /call?item= O=C(CCl)Nc1snc2ccc(Cl)cc12 returns the recorded outcome of this test. 0 (no)

Further, for CCCCCNc1snc2ccccc12 ? 0 (no)

Lab note: next compound to report on.
GET /call?item= CNc1snc2ccccc12 returns the recorded outcome of this test. 0 (no)
